The origin of these recorded values is paper PMC12297887.

tested on: A2780cis (ovarian cisplatin resistant cancer); assay: Cell viability (MTT), A2780cis; assay type: cell-based; conditions: IC50 MRC5 / IC50 A2780cis
The label is criterion met for Selectivity index (SI) A2780cis below 8 and criterion not met for Selectivity index (SI) A2780cis equal to or exceeding 8.

Solved entries (count: 4):
compound	cat
NC1=[S+][Pd-]([Cl])([PH](c2ccccc2)(c2ccccc2)c2ccccc2)[N+](=C(/C=C/c2ccccc2)c2ccccc2)N1.[Cl-] [PdC1, [PdCl(L-C1)(PPh3)]Cl]	criterion not met
CCNC1=[S+][Pd-]([Cl])([PH](c2ccccc2)(c2ccccc2)c2ccccc2)[N+](=C(C)/C=C/c2ccccc2)N1.[Cl-] [PdB3, [PdCl(L-B3)(PPh3)]Cl]	criterion not met
N.N.[Cl][Pt][Cl] [Cisplatin, reference compound]	criterion met
CC(/C=C/c1ccccc1)=[N+]1NC(N)=[S+][Pd-]1([Cl])[PH](c1ccccc1)(c1ccccc1)c1ccccc1.[Cl-] [PdB1, [PdCl(L-B1)(PPh3)]Cl]	criterion not met

Here is the next item to consider.
Does the reported Selectivity index (SI) A2780cis of `CNC(NN=C(C)C=Cc1ccccc1)=[S][Pd]([Cl])[P](c1ccccc1)(c1ccccc1)c1ccccc1.[Cl-]` stay below 8?
criterion not met

---

system: MRC5 (non-tumoral lung); experiment: Cell viability (MTT), MRC5; format: cell-based; conditions: 48 h of incubation, non-tumor lung fibroblast
The entries below are paired with their reported pIC50.
Keep in mind that pIC50 stands for -log10 of concentration in molar terms.

compound	tested system	pIC50
CCNC1=[S+][Pd-]([Cl])([PH](c2ccccc2)(c2ccccc2)c2ccccc2)[N+](=C(C)/C=C/c2ccccc2)N1.[Cl-] [PdB3, [PdCl(L-B3)(PPh3)]Cl]	MRC5 (non-tumoral lung)	5.03
CC(/C=C/c1ccccc1)=[N+]1NC(N)=[S+][Pd-]1([Cl])[PH](c1ccccc1)(c1ccccc1)c1ccccc1.[Cl-] [PdB1, [PdCl(L-B1)(PPh3)]Cl]	MRC5 (non-tumoral lung)	5.77

Next compound, please.
Provide one value: measured pIC50 of NC1=[S+][Pd-]([Cl])([PH](c2ccccc2)(c2ccccc2)c2ccccc2)[N+](=C(/C=C/c2ccccc2)c2ccccc2)N1.[Cl-] [PdC1, [PdCl(L-C1)(PPh3)]Cl]
4.33

---

The entries below are paired with their reported IC50.
tested on: MRC5 (non-tumoral lung); assay: Cell viability (MTT), MRC5; assay type: cell-based; settings: 48 h of incubation, non-tumor lung fibroblast
The reply should contain only the number, in µM.

molecule	IC50 (µM)
N.N.[Cl][Pt][Cl] [Cisplatin, reference compound]	21.6

Next molecule, please.
Provide one value: measured IC50 of `CNC(NN=C(C)C=Cc1ccccc1)=[S][Pd]([Cl])[P](c1ccccc1)(c1ccccc1)c1ccccc1.[Cl-]`
6.85

---

system: A549 (lung cancer); test: Cell viability (MTT), A549; type: cell-based; settings: 48 h of incubation, MTT
readout type: IC50 (µM)
The reply should contain only the number, in µM.

compound	IC50 / µM
CCNC1=[S+][Pd-]([Cl])([PH](c2ccccc2)(c2ccccc2)c2ccccc2)[N+](=C(C)/C=C/c2ccccc2)N1.[Cl-] [PdB3, [PdCl(L-B3)(PPh3)]Cl]	13
CNC(NN=C(C)C=Cc1ccccc1)=[S][Pd]([Cl])[P](c1ccccc1)(c1ccccc1)c1ccccc1.[Cl-] [PdB2]	30.4
N.N.[Cl][Pt][Cl] [Cisplatin, reference compound]	13

Provide one value: measured IC50 of CC(/C=C/c1ccccc1)=[N+]1NC(N)=[S+][Pd-]1([Cl])[PH](c1ccccc1)(c1ccccc1)c1ccccc1.[Cl-] [PdB1, [PdCl(L-B1)(PPh3)]Cl]
44.8

---

test system: MCF-7 (breast cancer); experiment: Cell viability (MTT), MCF-7; type: cell-based, human; conditions: 48 h of incubation, MTT
readout type: IC50 (µM)
The reply should contain only the number, in µM.

Here's what some known entries look like.
molecule	measured number
CNC(NN=C(C)C=Cc1ccccc1)=[S][Pd]([Cl])[P](c1ccccc1)(c1ccccc1)c1ccccc1.[Cl-] [PdB2]	1.47
CCNC1=[S+][Pd-]([Cl])([PH](c2ccccc2)(c2ccccc2)c2ccccc2)[N+](=C(C)/C=C/c2ccccc2)N1.[Cl-] [PdB3, [PdCl(L-B3)(PPh3)]Cl]	0.91
CC(/C=C/c1ccccc1)=[N+]1NC(N)=[S+][Pd-]1([Cl])[PH](c1ccccc1)(c1ccccc1)c1ccccc1.[Cl-] [PdB1, [PdCl(L-B1)(PPh3)]Cl]	3.79
N.N.[Cl][Pt][Cl] [Cisplatin, reference compound]	8.64

Next molecule, please.
Provide one value: measured IC50 of NC1=[S+][Pd-]([Cl])([PH](c2ccccc2)(c2ccccc2)c2ccccc2)[N+](=C(/C=C/c2ccccc2)c2ccccc2)N1.[Cl-] [PdC1, [PdCl(L-C1)(PPh3)]Cl]
17.7
